Below, each entry is listed with its recorded Relative binding activity, %.
- testedOn: T1, Biotin-huCGRPaSA (human, not fully specified; biotin (position not given))
- T1 construct: exact construct ('aSA') not explained; also called Biotin CGRPaSA; full-length (1-37) CGRP
- T1 peptide: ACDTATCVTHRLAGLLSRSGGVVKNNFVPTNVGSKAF
- assayInfo: ELISA, supernatant; relative to chimeric C245
The answer is to be given in %; state only the numeric part.

hu176 (antibody, V domains shown, 3E5 HC-3/1F5 LC1-3) VH: QVQLVQSGAEVKKPGASVKVSCKASGYTFTDYNMHWVRQAPGQGLEWMGYISPYNGGTAYNQKFKFRVTLTVDTSSSTAYMELSRLRSDDTVVYYCAREGLGGYWGQGTLVTVSS VL: DIVLTQSPASLAVSPGQRATITCKASQNIDFDGYAYMNWYQQKPGQPPKVLIYSVFNLESGVPARFSGSGSGTDFTLTINPVEADDTANYYCQQSHEVPYTFGQGTKLEIK; 65

Supply Relative binding activity, % value. Item: hu88 (antibody, V domains shown, 1F5 HC-5/2B8 LC2-2) VH: QVQLVQSGAEVKKPGASVKVSCKASGYTFIDFNMHWVRQAPGQRLEWMGYIYPYNADVVYNQDFTNRVTLTVDTSSSTAYMELSSLRSEDTAVYYCAREGLGGYWGQGTLVTVSS VL: DVQLTQSPSFLSASVGDRVTITCQASQNIDGNTYMNWYQQKPGKAPKVLIYSIFNLESGVPSRFSGSGSGTEFTLTISSLQPEDFATYYCQQSNDYPYTFGQGTKLEIK
93

Indicate the recorded Relative binding activity, % value for this binder: hu11 (antibody, V domains shown, 1B2 HC-1/3E5 LC-1) VH: QVQLVQSGAEVKKPGASVKVSCKASGYTFTDYNMHWVRQAPGQGLEWMGYIFPYNGVAVYNRKFRSRVTLTIDTSSSTAYMELRSLRSDDTAVYYCAREGLGGYWGQGTLVTVSS VL: DIVLTQSPDSLAVSLGERATINCKASQNIDYDGYTYLNWYQQKPGQPPKVLIYSIFNLESGVPDRFSGSGSGTDFTLTISSLQAEDVAVYYCQQSNEVPYTFGQGTKLEIK
49

Check the records and state Relative binding activity, % for hu142 (antibody, V domains shown, 2B8 HC1-3/3H10 LC2-1) VH: QVQLVQSGAEVKKPGASVKVSCKASGYTFTDYNMHWVRQAPGQGLEWMGNIYPYNAGTVYNQKFNNRVTLTVDTSSSTAYMELSRLRSDDTAVYYCAREGLGGYWGQGTLVTVSS VL: DIVLTQSPDSLAVSLGERATINCKASQNIDYGGYSYMNWYQQKPGQPPKVLIYSVFNLESGVPDRFSGSGSGTDFTLTISSLQAEDVAVYYCQQSNEAPYTFGQGTKLEIK
84

State its Relative binding activity, %: hu209 (antibody, V domains shown, 3H10 HC-2/1A2 LC2-1) VH: QVQLVQSGAEVKKPGASVKVSCKASGYTFTDYNMHWVRQAPGQGLEWMGYIYPYNGHTVYNQKFRNRVTLTVDTSSSTAYMELRSLRSDDTAVYYCAREGLGGYWGQGTLVTVSS VL: DIVLTQSPASLAVSPGQRATITCKASQNIDYDGYAYLNWYQQKPGQPPKVLIYSVFNLESGVPARFSGSGSGTDFTLTINPVEANDTANYYCQQSNEFPYTFGQGTKLEIK
64
